Taken from patent US11851478.

Readings of IC50 FRNT* (ng/mL) against CHIKV for the listed binders
- tested-on: Chikungunya virus (CHIKV), infectious virus of the focus reduction neutralization test (Chikungunya virus)
- assay-text: cell-based or functional assay
Please respond with the number in ng/mL and leave the unit unwritten.

binder	unit	IC50 FRNT* (ng/mL) against CHIKV
CHKV-31 (antibody, V domains shown) VH: EVQLVESGGGLVQPGGSLRLSCAASGFTFSNYAMSWVRQAPGKGLEWVSGISGSGRTTYYTDSVKGRFNISRDNTKNTLFLQMNSLRAEDTAVYYCVKDRAGWFGNYFDYWGQGTLVTVSS VL: DIQMTQSPSSLSASVGDRVTITCRASQGISNYLAWFQQKPGKAPKSLIYAASSLQSGVPSKFSGSRSGTNFTLTISSLQPEDFATYYCQQYNTYPPTFGQGTTVEIK	ng/mL	684

Shift focus to the following entry.
Form field: reported IC50 FRNT* (ng/mL) against CHIKV of CHKV-29 (antibody, V domains shown) VH: EVQLVESGGVVVQPGGSLRLSCAASGFNFDDYTMHWVRQAPGKGLEWVSLITWDGLSTYYADSMKGRFTISRDNSKDSLYLQMDSLRTEDTAFYYCVRDMGPGAVHFYFYGMDVWGQGTLVTVSS VL: QSALTQPASVSGSPGQSITISCTGTSSDVGNYNLVSWYQQHPGKVPKLIIYEVSKRPSGISKRFSASKSGNTASLTISGLQAEDEADYYCCSYAGSSGVFGAGTKLTVL
86
